# tested_on: EPHB1 (UniProt P54762)
# Sequence (P54762 whole entry, looked up): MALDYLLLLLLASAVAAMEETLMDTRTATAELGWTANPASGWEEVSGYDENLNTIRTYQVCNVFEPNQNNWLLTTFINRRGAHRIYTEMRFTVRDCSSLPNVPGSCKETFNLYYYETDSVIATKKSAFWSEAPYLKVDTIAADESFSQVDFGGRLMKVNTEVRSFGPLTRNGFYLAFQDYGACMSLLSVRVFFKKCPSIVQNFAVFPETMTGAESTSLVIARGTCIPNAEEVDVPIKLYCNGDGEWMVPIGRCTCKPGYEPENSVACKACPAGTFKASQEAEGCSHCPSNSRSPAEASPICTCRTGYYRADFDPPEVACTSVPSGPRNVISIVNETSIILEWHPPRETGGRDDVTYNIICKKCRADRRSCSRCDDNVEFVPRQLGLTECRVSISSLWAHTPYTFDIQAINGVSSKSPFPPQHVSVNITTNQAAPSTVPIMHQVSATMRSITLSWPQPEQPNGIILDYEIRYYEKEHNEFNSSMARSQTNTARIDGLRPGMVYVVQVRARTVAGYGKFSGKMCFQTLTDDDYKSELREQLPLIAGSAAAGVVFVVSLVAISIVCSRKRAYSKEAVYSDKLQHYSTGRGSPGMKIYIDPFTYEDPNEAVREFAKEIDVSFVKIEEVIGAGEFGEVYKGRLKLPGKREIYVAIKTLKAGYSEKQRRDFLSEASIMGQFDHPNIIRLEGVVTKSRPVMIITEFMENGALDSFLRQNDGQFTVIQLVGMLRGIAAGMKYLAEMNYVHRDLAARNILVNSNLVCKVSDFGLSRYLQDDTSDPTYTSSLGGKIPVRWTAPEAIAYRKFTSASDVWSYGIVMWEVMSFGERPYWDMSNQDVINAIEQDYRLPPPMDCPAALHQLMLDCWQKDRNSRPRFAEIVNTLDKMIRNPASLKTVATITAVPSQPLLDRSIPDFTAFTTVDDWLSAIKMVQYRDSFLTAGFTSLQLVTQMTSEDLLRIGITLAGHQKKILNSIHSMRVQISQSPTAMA
# procedure_details: phosphorylation enrichment, bacterial display (enrichment ratio); higher = better substrate or ligand; peptides without Tyr show the background;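 note: 11-residue human phosphosite peptides and single-mutation variants displayed on the E. coli surface, counted by deep sequencing, each peptide's frequency after selection divided by its frequency in the unselected input library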;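 note: frequency after pTyr selection over input frequency; kinase dosed for 20-30% of maximal phosphorylation in three min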
measured_attribute: phosphorylation enrichment
# respond with the number and nothing more

Consider the reported phosphorylation enrichment for these sequences:
SSVAGYACLAF [MVD_Y131_A128V_YF] | 0.562
GNYSGYDDAWD [POLR1C_Y36] | 6.73
KKHIPYSEHKS [CSNK1G2_Y206_R207S] | 0.488
KHGGNYVPAPE [OSCP1_Y237_K242E] | 0.369
GYQPEYGQPAG [SYP_Y278_D277E] | 0.451
LERFIYNPEEF [HLA-DPB1_Y59_R61P_YF] | 0.738

Ask: Short answer please: phosphorylation enrichment, EPHB1 (UniProt P54762), entry QRPFVYFFSFL [PTEN_Y176_R173P_YF]
Result: 0.783

Ask: Queued: ETKKQYNSFTY [TMED3_Y85_D86N]
Result: 0.436

Ask: Queued: PVQAVYQKVVA [HBB_Y131_A130V]
Result: 0.727

Ask: Queued: SEASYYKSLNL [NGEF_Y289]
Result: 0.499

Ask: Queued: ALEKTYNTYRS [B4GALNT2_Y538]
Result: 0.336

Ask: Queued: QGCSIYKDFFR [PLA2G2D_Y82_YF]
Result: 1.11

Ask: Queued: VPLATYMRIYK [RPL21_Y30]
Result: 0.511
